Reference for the values: patent US8105431B2

Collected Maximum Absorption Wavelength values appear next to each entry.
Assay: Absorption measurement in chloroform (maximum absorption wavelength, molar absorbance coefficient)
Type: physicochemical
Numbers only here, please. The scale is nm.

Solved entries:
>>> measured("O=P(OB1n2c3c4ccccc4c2/N=C2N=C(/N=c4/c5ccccc5c(n41)=N3)c1ccccc1\\2)(Oc1ccccc1)Oc1ccccc1 [Compound 3, SubPcBOPO(OPh)2]")
564.5
>>> measured("CCCCOP(=O)(OCCCC)OB1n2c3c4ccccc4c2/N=C2N=C(/N=c4/c5ccccc5c(n41)=N3)c1ccccc1\\2 [Compound 4, SubPcBOPO(OBu)2]")
562.5
>>> measured("O=P(OB1n2c3c4ccccc4c2/N=C2N=C(/N=c4/c5ccccc5c(n41)=N3)c1ccccc1\\2)(c1ccccc1)c1ccccc1 [Compound 1, SubPcBOPOPh2]")
564.0

Let us move to another entry and its Maximum Absorption Wavelength.
q: Identify Maximum Absorption Wavelength associated with the compound ClB1n2c3c4ccccc4c2/N=C2N=C(/N=c4/c5ccccc5c(n41)=N3)c1ccccc1\2 [Intermediate Compound 1, SubPcBCl, reference compound]
a: 565.0
